Molecular target: HLA-B*07:02
Test: IEDB peptide-MHC binding, purified MHC/competitive/fluorescence; bounds were set here for any values at or beyond the usual limits of such assays
Settings: source organism: Zaire ebolavirus
Kindly supply the reported IC50 values for the records listed here.
Numbers only, in µM.

The cases that follow already have their IC50 on record.
> print(dat)
   ordered.residues  assayed.target  unit.symbol  measured.number
1         FPQLSAIAL     HLA-B*07:02           µM             13.6
2         GPHRTIHHA     HLA-B*07:02           µM             5.75

Prompt line: Supply IC50 value. Item: IFRLMRTNF
Response line: 9.03

====

Biological target: HLA-B*07:02
Test: IEDB peptide-MHC binding, purified MHC/competitive/fluorescence; filed as Kd, often an IC50 or EC50 that approximates it; bounds were set here for any values at or beyond the usual limits of such assays
Details: source organism: Vaccinia virus Tian Tan
Quantity measured: Kd

Prompt line: # lookup: HLA-B*07:02 Kd, key = YYKDDISYF
Response line: ≥ 20 µM

====

Molecular target: HLA-B*46:01
Experiment: IEDB peptide-MHC binding, purified MHC/competitive/fluorescence; filed as Kd, often an IC50 or EC50 that approximates it; bounds were set here for any values at or beyond the usual limits of such assays
Conditions: source organism: Homo sapiens
Quantity measured: Kd

Below, each entry is followed by its recorded Kd result.
> print(dat)
   ordered.residues   result
1         TLKDGDFIL  ≥ 20 µM
2         IYDFYYLDY  ≥ 20 µM

Prompt line: Tell me its Kd on HLA-B*46:01: FWAWSVLRV
Response line: ≥ 20 µM

====

Target: HLA-B*57:01
Assay: IEDB peptide-MHC binding, purified MHC/direct/fluorescence; filed as Kd, often an IC50 or EC50 that approximates it; bounds were set here for any values at or beyond the usual limits of such assays
Settings: source organism: Yellow fever virus 1899/81
Quantity measured: Kd

Prompt line: Tell me measured Kd for RADEINAIL please.
Response line: ≥ 20 µM

====

Target: HLA-A*02:03
Assay: IEDB peptide-MHC binding, purified MHC/competitive/radioactivity; filed as Kd, often an IC50 or EC50 that approximates it; bounds were set here for any values at or beyond the usual limits of such assays
Settings: source organism: Dengue virus 1 Brazil/97-11/1997
Quantity measured: Kd

// worked examples, Kd included
> print(dat)
   ordered.residues   result
1        KILNPYMPSV  48.5 nM
2        TLATGPLTTL  9.26 nM

Then this sequence:
Prompt line: Given ILNPYMPSV , respond with its Kd.
Response line: 1.98 nM

====

Target: HLA-A*29:02
Assay: IEDB peptide-MHC binding, purified MHC/competitive/radioactivity; filed as Kd, often an IC50 or EC50 that approximates it; bounds were set here for any values at or beyond the usual limits of such assays
Conditions: source organism: Mammarenavirus machupoense
pKd: −log10 of the molar value.
Quantity measured: pKd

> print(dat)
   ordered.residues  quantity.measured  result
1        GERSRCYSVY                pKd  ≤ 4.15

Then this sequence:
Prompt line: Please tell me the measured pKd for VDICFWSTI ; system: HLA-A*29:02.
Response line: ≤ 4.10
